test system: ACHN renal; experiment: NCI-60 one-dose screen, 48 h (100 = growth as untreated, 0 = no growth, -100 = all killed); conditions: 10 µM unless noted
Compounds without any hit were thinned out: in the full panel of roughly 83,000, 20% have a hit.
MEASUREMENT_TYPE: growth (%)
Give the quantity in %, number only.

O=C(CNC(=O)c1cccc2ccccc12)Nc1ccccc1Oc1ccccc1 ... 29.9
CCCS(=O)(=O)c1nc(NC2CC2)cc(-c2ccc3c(ccn3C3CC(C)(C)NC(C)(C)C3)c2)n1 ... -90.3
COc1ccc(-c2nc3sccn3c2-c2ccnc(NCCCNS(=O)(=O)c3ccc(F)cc3)n2)cc1 ... 2.12
CCCCCCc1nc2c(c(C)nn2-c2ccccc2)c2c1CCCCC2 ... 107
Cc1cc(N/C=c2\sc3ncnn3c2=O)no1 ... 106
COc1ccc2c(c1)C(C)Cc1c(N(C)C)ncnc1N2C (configuration not stated) ... 46.8
CCn1cc(C(=O)O)c(=O)c2cc(F)c(N3CCN(S(=O)(=O)c4ccc(OC)c(OC)c4)CC3)cc21 ... 93
CC1CCc2c(sc(NC(=O)CSc3nnc4ccccn34)c2C(N)=O)C1 (configuration not stated) ... 96.7

Prompt: Return value of growth for input `Cc1sc2nc(CSc3nnc(-c4ccco4)o3)[nH]c(=O)c2c1C` , no commentary.
Completion: 93.8

Prompt: Return value of growth for input `NC(=O)c1ccc2c(c1)OCO2` , no commentary.
Completion: 109

Prompt: Return value of growth for input `COc1cccc(NC(=O)c2sc3nc4c(cc3c2N)CCCC4)c1` , no commentary.
Completion: 44.2

Prompt: Return value of growth for input `Cc1ccc(C(=O)c2sc3nc4c(cc3c2N)CCCC4)c(C)c1` , no commentary.
Completion: 46.4

Prompt: Return value of growth for input O=[N+]([O-])c1cc(S(=O)(=O)OCC2CO2)ccc1Cl (configuration not stated) , no commentary.
Completion: 98.5

Prompt: Return value of growth for input `Cc1ccc(OCCn2c(C)nn(-c3ccc(Cl)cc3)c2=O)cc1` , no commentary.
Completion: 103

Prompt: Return value of growth for input `O=C(/C=C/c1ccccc1)n1c(-c2ccc(Cl)cc2)nc2ccccc21` , no commentary.
Completion: -49.9

Prompt: Return value of growth for input `Cc1ccc2nc(-c3c(CCCO)noc3N)[nH]c(=O)c2c1` , no commentary.
Completion: 113

###

test system: SNB-75 CNS; assay: NCI-60 one-dose screen, 48 h (100 = growth as untreated, 0 = no growth, -100 = all killed); settings: 10 µM unless noted
Compounds without any hit were thinned out: in the full panel of roughly 83,000, 20% have a hit.
Listing of entries alongside the reported growth.
Give the quantity in %, number only.

O=c1cc(C2NCCc3c2[nH]c2ccccc32)c2c(ccc3ccccc32)o1 (stereo not given) ... 51.6

Prompt: Return value of growth for input `c1cc(-c2ccc3c(c2)OCO3)n2nccc2n1` , no commentary.
Completion: 84.5

Prompt: Return value of growth for input `O=S(=O)(NCCCNc1nccc(-c2c(-c3ccc(F)c(O)c3)nc3sccn23)n1)c1ccc(Cl)cc1` , no commentary.
Completion: 122

Prompt: Return value of growth for input `COc1ccc(/C=C/C(=O)c2cccc(B(O)O)c2)cc1O` , no commentary.
Completion: 9.35

Prompt: Return value of growth for input `C=C1C(=O)O[C@H]2[C@H]1CC/C(Cn1cc(-c3ccc(N)cc3)nn1)=C\CC[C@@]1(C)O[C@@H]21` , no commentary.
Completion: 25.6

Prompt: Return value of growth for input `COc1cc(OC)c(C(=O)/C=C/c2cccc(C#N)c2)c(OC)c1` , no commentary.
Completion: 17.3

Prompt: Return value of growth for input `CC(=O)Nc1ccc2c(c1)/C(=C\C=C/c1ccc([N+](C)(C)C)cc1)c1ccccc1-2` , no commentary.
Completion: -1.84

Prompt: Return value of growth for input `COc1cccc2cc(-c3cc4ccccc4[nH]3)c(=NC(=O)c3ccc(Cl)cc3)oc12` , no commentary.
Completion: 5.92
